experimentalSystem: Luciferin 4-monooxygenase (Photinus pyralis)
protocolDescription: Biochemical firefly luciferase enzyme assay for NPC (AID 624030); further: nearly all actives have a fitted effect of over 70% in size
runParameters: purified P. pyralis luciferase, luminescence, 5 min; series mostly up to 24.9 µM
Inconclusive results are not listed. Active and inactive are the calls of the source. The call rests on the fitted dose curve; in most records, active means well fitted inhibition curve with a large enough effect; inconclusive means small, poorly fitted or top-dose-only effect; inactive means flat fitted curve, though single readings scatter.
Outcome codes: active, inactive

| compound | group |
| --- | --- |
| CCN(CC)[C@@H](C)CN1c2ccccc2Sc2ccccc21 | inactive |
| CCC(=O)OCC(=O)[C@@]1(OC(=O)CC)[C@H](C)C[C@@H]2[C@@H]3[C@H]([C@@H](O)C[C@@]21C)[C@]1(C)C=CC(=O)C=C1C[C@@H]3Cl | inactive |
| CC(=C(CCOP(=O)(O)O)SC(=O)c1ccccc1)N(C=O)Cc1cnc(C)nc1N | inactive |
| CC(=O)O[C@]1(C(C)=O)CC[C@@H]2[C@@H]3C=C(C)C4=CC(=O)CC[C@@]4(C)[C@H]3CC[C@]21C | inactive |
| C[C@@H](C(=O)O)c1ccc(C(=O)c2ccccc2)s1 | active |
| O=C1OC(CO)C(O)C(O)C1O (stereo not given) | inactive |
| NC(CCC(=O)N[C@@H](CS)C(=O)NCC(=O)O)C(=O)O (stereo not given in full) | inactive |
| Clc1ccc(CC[C@H](Cn2ccnc2)Sc2c(Cl)cccc2Cl)cc1 | inactive |
| CC(C)=CCC[C@](C)(O)C1CC=C(C)CC1 (stereo not given in full) | inactive |
| C/C1=C2N=C(/C=C3N=C(/C(C)=C4\[N-]C(C)(C5N=C1C(C)(CCC(=O)NCC(C)OP(=O)([O-])O[C@H]1C(O)C(n6cnc7cc(C)c(C)cc76)O[C@@H]1CO)C5CC(N)=O)C(C)(CC(N)=O)C4CCC(N)=O)C(C)(CC(N)=O)C\3CCC(N)=O)C(C)(C)C/2CCC(N)=O.[CH2-]C1OC(n2cnc3c(N)ncnc32)C(O)C1O.[Co] (stereo not given in full) | inactive |
